Listing: Kd of selected binders
Biological target: T1, PUF4 RNA-binding domain (Saccharomyces cerevisiae, UniProt P25339 537-888)
T1 sequence: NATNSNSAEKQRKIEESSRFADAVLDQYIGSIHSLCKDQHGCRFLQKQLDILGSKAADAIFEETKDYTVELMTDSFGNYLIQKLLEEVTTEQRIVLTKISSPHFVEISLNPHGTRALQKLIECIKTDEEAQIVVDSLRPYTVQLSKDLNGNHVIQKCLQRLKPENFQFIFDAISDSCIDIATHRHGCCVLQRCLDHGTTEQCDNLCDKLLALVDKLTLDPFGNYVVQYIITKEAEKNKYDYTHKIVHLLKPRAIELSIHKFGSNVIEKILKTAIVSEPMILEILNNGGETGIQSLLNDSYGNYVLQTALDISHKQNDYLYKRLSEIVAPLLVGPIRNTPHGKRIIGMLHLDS
Test: Mg; RNA-MaP; 20 mM Na-HEPES pH 7.4, 30 mM KOAc, 0.75 mM MgCl2, 0.1% Tween-20, 5% glycerol, 0.1 mg/mL BSA, 2 mM DTT; 25 C; 0.0125-409.6 nM protein
Conditions: tags: N-His6-TEV cleaved; C-SNAP kept, Cy3B-labelled; label: tethered on chip by stalled RNA polymerase
measuredQuantity: Kd

[
  {
    "binder": "UCUCUUUUACACUAUACGUCUCUU (ssRNA) [Id_ii_S1_P3E.4_K3.3_C3.2_[C-2T]_H3.3_A3.1_F3.1_T3.2_[T9C]_[A10G]]",
    "recordedResult": "2060 nM"
  },
  {
    "binder": "UCUCUUUCGUGUAUUUUAGUUCUCUU (ssRNA) [Id_iii_S1_P4E.8_K4.4_C4.3_[T-1G]_H4.1_A4.2_F4.1_T4.2]",
    "recordedResult": "1.23 nM"
  },
  {
    "binder": "UCUCUUUGUAUCAAUCUCUU (ssRNA) [Ic_S1_P3E.1_K3.1_C3.1_H3.1_A3.1_[A6C]_F3.1_[T7A]_T3.1]",
    "recordedResult": "108 nM"
  },
  {
    "binder": "UCUCUUAGACACUAUAUAUCUCUU (ssRNA) [Id_ii_S1_P3E.4_K3.3_C3.2_[C-2A]_[T-1G]_H3.3_A3.1_F3.1_T3.2]",
    "recordedResult": "> 2300 nM"
  }
]
